B1: NET1 (parent)
chain: RVRPLARVTSLANLISPVRNGAVR

- Variants of: B1
- ASSAY_DETAILS: protein stability index of a GFP-peptide fusion (GPS, HEK-293T) (PSI 1-6); higher = more stable;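 note: lentivirally expressed fusions sorted by FACS into six bins by GFP to DsRed ratio, PSI derived from sequencing read proportions per bin multiplied by bin number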
- CONDITION: c terminus: a fixed tail appended
Class Yes: protein stability index at least 3. Class No: protein stability index below 3.

>>> qualitative_label("RVRPLARVTSLINLISPVRNGAVR [A12I]")
"No"
>>> qualitative_label("RVRPLAVVTSLANLISPVRNGAVR [R7V]")
"No"
>>> qualitative_label("CVRPLARVTSLANLISPVRNGAVR [R1C]")
"No"
>>> qualitative_label("RVRPLARVTSLANVISPVRNGAVR [L14V]")
"No"
>>> qualitative_label("RVRPLARVTSLANLISPVRNGAPR [V23P]")
"Yes"
>>> qualitative_label("RVRFLARVTSLANLISPVRNGAVR [P4F]")
"No"
>>> qualitative_label("RVRPLARVTSLANLISPVRNGAHR [V23H]")
"Yes"
>>> qualitative_label("RVRPLARVTSLANCISPVRNGAVR [L14C]")
"No"
>>> qualitative_label("RVRPLARVTSLANLISPVRIGAVR [N20I]")
"No"
>>> qualitative_label("RVRPYARVTSLANLISPVRNGAVR [L5Y]")
"No"
>>> qualitative_label("PVRPLARVTSLANLISPVRNGAVR [R1P]")
"Yes"
>>> qualitative_label("RVRQLARVTSLANLISPVRNGAVR [P4Q]")
"No"
>>> qualitative_label("RVRPTARVTSLANLISPVRNGAVR [L5T]")
"No"
>>> qualitative_label("RVRPLARVTSNANLISPVRNGAVR [L11N]")
"Yes"
>>> qualitative_label("RVRPLARVTSLANLISPVRNLAVR [G21L]")
"No"
>>> qualitative_label("RVRPLARVTSLANLISPVRSGAVR [N20S]")
"No"
>>> qualitative_label("RVRPLARVTSLENLISPVRNGAVR [A12E]")
"Yes"
>>> qualitative_label("RVRPLARVTSLANLISPVRNGAVL [R24L]")
"No"
>>> qualitative_label("RVRPLARVTSLANLISGVRNGAVR [P17G]")
"No"
>>> qualitative_label("RVRPLARVTSLANLISPVRNGASR [V23S]")
"Yes"
